test system: MDA-MB-231 human metastatic breast cancer cells; test: Anti-tumor activity in xenograft mice; format: in vivo; settings: Day 30; Tax 10 mg/kg I.V. once/week; CTR 30 mg/kg I.P. every 3 days; or Tax 5 + CTR 15 mg/kg once/week
Recorded tumor size (volume) by entry
Measurement type: tumor size (volume) (mm^3)

1. COc1ccc2cc(/C=C/C(=O)c3ccccc3OC)c(=O)[nH]c2c1: 200.77
2. CC(=O)O[C@H]1C(=O)[C@@]2(C)[C@H]([C@H](OC(=O)c3ccccc3)[C@]3(O)C[C@H](OC(=O)[C@H](O)[C@@H](NC(=O)c4ccccc4)c4ccccc4)C(C)=C1C3(C)C)[C@]1(OC(C)=O)CO[C@@H]1C[C@@H]2O [Paclitaxel, reference compound]: 170.36
3. COc1ccccc1C(=O)/C=C/c1cc2cc(C)ccc2[nH]c1=O: 253.37
4. COc1ccccc1C(=O)/C=C/c1cc2ccccc2[nH]c1=O: 209.84
5. COc1ccc2[nH]c(=O)c(/C=C/C(=O)c3ccccc3OC)cc2c1: 140.63

----------
Recorded tumor size (volume) by entry
system: MDA-MB-231 human metastatic breast cancer cells; test: Anti-tumor activity in xenograft mice; type: in vivo; details: Day 14; Tax 10 mg/kg I.V. once/week; CTR 30 mg/kg I.P. every 3 days; or Tax 5 + CTR 15 mg/kg once/week
Measurement type: tumor size (volume) (mm^3)

1. CC(=O)O[C@H]1C(=O)[C@@]2(C)[C@H]([C@H](OC(=O)c3ccccc3)[C@]3(O)C[C@H](OC(=O)[C@H](O)[C@@H](NC(=O)c4ccccc4)c4ccccc4)C(C)=C1C3(C)C)[C@]1(OC(C)=O)CO[C@@H]1C[C@@H]2O [Paclitaxel, reference compound]: 94.66
2. COc1ccccc1C(=O)/C=C/c1cc2ccccc2[nH]c1=O: 90.07
3. COc1ccccc1C(=O)/C=C/c1cc2cc(C)ccc2[nH]c1=O: 138.10
4. COc1ccc2cc(/C=C/C(=O)c3ccccc3OC)c(=O)[nH]c2c1: 99.68
5. COc1ccc2[nH]c(=O)c(/C=C/C(=O)c3ccccc3OC)cc2c1: 84.64

----------
test system: K562; experiment: SRB-based cytotoxicity assay; assay type: cell-based; conditions: Homo sapiens, Table 2
Measurement type: IC50 (nM)

1. COc1ccccc1C(=O)/C=C/c1cc2cc(C)ccc2[nH]c1=O: 210
2. COc1ccccc1C(=O)/C=C/c1cc2ccccc2[nH]c1=O: 150
3. COc1ccc2cc(/C=C/C(=O)c3ccccc3OC)c(=O)[nH]c2c1: 950
4. COc1ccc2[nH]c(=O)c(/C=C/C(=O)c3ccccc3OC)cc2c1: 130

----------
system: MCF-7; experiment: SRB-based cytotoxicity assay; format: cell-based, human; conditions: Homo sapiens, MCF7; MCF-7; SRB; Table 2
Returns: string. Value is satisfied if measured IC50 is below 500 nM, and not satisfied if it is greater than or equal to it.

1. CCN(CC)CCCC(C)Nc1ccnc2cc(Cl)ccc12 (centres unmarked) [Chloroquine, reference compound]: not satisfied
2. COc1ccccc1C(=O)/C=C/c1cc2ccccc2[nH]c1=O [CTR-17]: not satisfied
3. COc1ccc2[nH]c(=O)c(/C=C/C(=O)c3ccccc3OC)cc2c1 [CTR-20]: satisfied
4. COc1ccc2cc(/C=C/C(=O)c3ccccc3OC)c(=O)[nH]c2c1 [CTR-19]: not satisfied
5. COc1ccccc1C(=O)/C=C/c1cc2cc(C)ccc2[nH]c1=O [CTR-18]: satisfied

----------
system: MCF-10A; assay: SRB-based cytotoxicity assay; format: cell-based; conditions: Homo sapiens, MCF-10A; MCF10A non-cancer; 72 hours; Table 4
Recorded log10 of IC50 by entry
Measurement type: log10 of IC50 (log10 of the value in nM)

1) COc1cccc(OC)c1C(=O)/C=C/c1cc2ccccc2[nH]c1=O: 3.42
2) COc1ccc(OC)c(C(=O)/C=C/c2cc3cc(OC)ccc3[nH]c2=O)c1: 2.99
3) CCOc1ccccc1C(=O)/C=C/c1cc2cc(OC)ccc2[nH]c1=O: 1.85
4) COc1cc(F)ccc1C(=O)/C=C/c1cc2ccccc2[nH]c1=O: 3.45
5) COc1ccccc1C(=O)/C=C/c1cc2cc(C)c(C)cc2[nH]c1=O: 3.05
6) COc1ccc2[nH]c(=O)c(/C=C/C(=O)c3ccc(OC(F)(F)F)cc3OC)cc2c1: 3.13
7) COc1cc2cc(/C=C/C(=O)c3ccccc3OC)c(=O)[nH]c2cc1OC: 3.32
8) CCOc1ccccc1C(=O)/C=C/c1cc2ccccc2[nH]c1=O: 1.48
9) COc1ccc(C(=O)/C=C/c2cc3ccccc3[nH]c2=O)c(OC)c1: 3.40

----------
assay: SRB cell viability, isogenic breast cell lines; format: cell-based; details: human, MCF10AT1 cells (pre-malignant breast cells), 31.25 nM
Measurement type: viability at 72 h, 0.03125 µM (%)

1. CCOc1ccccc1C(=O)/C=C/c1cc2ccccc2[nH]c1=O: 70
2. COc1ccccc1C(=O)/C=C/c1cc2cccc(OC)c2[nH]c1=O: 24

----------
Recorded tumor size (volume) by entry
test system: MDA-MB-231 human metastatic breast cancer cells; test: Anti-tumor activity in xenograft mice; format: in vivo; conditions: Day 24; Tax 10 mg/kg I.V. once/week; CTR 30 mg/kg I.P. every 3 days; or Tax 5 + CTR 15 mg/kg once/week
Measurement type: tumor size (volume) (mm^3)

1) CC(=O)O[C@H]1C(=O)[C@@]2(C)[C@H]([C@H](OC(=O)c3ccccc3)[C@]3(O)C[C@H](OC(=O)[C@H](O)[C@@H](NC(=O)c4ccccc4)c4ccccc4)C(C)=C1C3(C)C)[C@]1(OC(C)=O)CO[C@@H]1C[C@@H]2O [Paclitaxel, reference compound]: 95.61
2) COc1ccccc1C(=O)/C=C/c1cc2cc(C)ccc2[nH]c1=O [CTR-18]: 143.78
3) COc1ccc2[nH]c(=O)c(/C=C/C(=O)c3ccccc3OC)cc2c1 [CTR-20]: 106.26
4) COc1ccc2cc(/C=C/C(=O)c3ccccc3OC)c(=O)[nH]c2c1 [CTR-19]: 124.76
5) COc1ccccc1C(=O)/C=C/c1cc2ccccc2[nH]c1=O [CTR-17]: 160.86

----------
tested on: MCF-7; test: SRB-based cytotoxicity assay; assay type: cell-based, human; conditions: MCF-7; SRB; Table 2
Measurement type: IC50 (µM)

1. N.N.[Cl][Pt][Cl] [Cisplatin, reference compound]: 25.8

----------
Recorded viability at 72 h, 0.03125 µM by entry
assay: SRB-based cytotoxicity assay; format: cell-based; conditions: human, MCF-10A cells (non-cancer breast cells); MCF10A; 31.25 nM; 72 hours; read-out: cell viability
Measurement type: viability at 72 h, 0.03125 µM (%)

1) CCOc1ccccc1C(=O)/C=C/c1cc2ccccc2[nH]c1=O: 87
2) COc1ccccc1C(=O)/C=C/c1cc2cccc(OC)c2[nH]c1=O: 26

----------
test system: MDA-MB-468; experiment: SRB-based cytotoxicity assay; assay type: cell-based, human; settings: Homo sapiens; MDA-MB-468; SRB; Table 2
pIC50: −log10 of the molar value.
Measurement type: pIC50

1. COc1ccc2[nH]c(=O)c(/C=C/C(=O)c3ccccc3OC)cc2c1: 6.92
2. COc1ccccc1C(=O)/C=C/c1cc2cc(C)ccc2[nH]c1=O: 7.10
3. CCN(CC)CCCC(C)Nc1ccnc2cc(Cl)ccc12 (centres unmarked) [Chloroquine, reference compound]: 4.54
4. COc1ccc2cc(/C=C/C(=O)c3ccccc3OC)c(=O)[nH]c2c1: 5.72
5. COc1ccccc1C(=O)/C=C/c1cc2ccccc2[nH]c1=O: 6.82

Reference source for all entries: patent US20180344725A1
